- experiment_description: Pharmacokinetics after oral apixaban capsules, plasma concentrations by LC/MS
- measurement_parameters: both, mixed-breed, dog, plasma, po, 0.2 mg/kg, AUC (area-under-the-curve), dogs, mean dose 0.2 mg/kg; geometric mean, n = 5
parameter_measured: AUC (ng·h/mL)

1) COc1ccc(-n2nc(C(N)=O)c3c2C(=O)N(c2ccc(N4CCCCC4=O)cc2)CC3)cc1 = 1770

====

- experiment_description: Pharmacokinetics after oral apixaban capsules, plasma concentrations by LC/MS
- measurement_parameters: both, mixed-breed, dog, plasma, po, 0.2 mg/kg, F% (fraction of oral dose absorbed, bioavailability), dogs, PO 0.2 mg/kg vs IV 0.18 mg/kg; mean, n = 5
parameter_measured: bioavailability (%)

1) COc1ccc(-n2nc(C(N)=O)c3c2C(=O)N(c2ccc(N4CCCCC4=O)cc2)CC3)cc1 = 28.4

====

- experiment_description: Pharmacokinetics after oral apixaban capsules, plasma concentrations by LC/MS
- measurement_parameters: both, mixed-breed, dog, plasma, po, 0.2 mg/kg, K10 T½ (apparent elimination half-life), dogs, mean dose 0.2 mg/kg; mean, n = 5
parameter_measured: half-life (h)

1. COc1ccc(-n2nc(C(N)=O)c3c2C(=O)N(c2ccc(N4CCCCC4=O)cc2)CC3)cc1 = 3.1

====

- experiment_description: Pharmacokinetics after intravenous apixaban, plasma concentrations by LC/MS
- Assay type: in vivo, dog
- measurement_parameters: both sexes, mixed-breed, dog, plasma, iv, 0.18 mg/kg, dogs, IV, mean dose 0.18 mg/kg; geometric mean; read-out: CL (systemic clearance) (converted)
parameter_measured: clearance (L/h/kg)

1) COc1ccc(-n2nc(C(N)=O)c3c2C(=O)N(c2ccc(N4CCCCC4=O)cc2)CC3)cc1 = 0.0312

====

- experiment_description: Pharmacokinetics after intravenous apixaban, plasma concentrations by LC/MS
- Type: in vivo, dog
- measurement_parameters: both sexes, mixed-breed, dog, plasma, iv, 0.18 mg/kg, dogs, IV, mean dose 0.18 mg/kg; geometric mean; read-out: MRT (mean residence time)
parameter_measured: MRT (h)

1) COc1ccc(-n2nc(C(N)=O)c3c2C(=O)N(c2ccc(N4CCCCC4=O)cc2)CC3)cc1 = 5.6

====

- experiment_description: Pharmacokinetics after oral apixaban capsules, plasma concentrations by LC/MS
- measurement_parameters: both, mixed-breed, dog, plasma, po, 0.2 mg/kg, TMax, dogs, mean dose 0.2 mg/kg, model fit; individual dogs (Dog 1-5)
parameter_measured: TMax (h)

1. COc1ccc(-n2nc(C(N)=O)c3c2C(=O)N(c2ccc(N4CCCCC4=O)cc2)CC3)cc1 [apixaban] = 3.5

====

- experiment_description: Pharmacokinetics after oral apixaban capsules, plasma concentrations by LC/MS
- measurement_parameters: both, mixed-breed, dog, plasma, po, 0.2 mg/kg, CMax (peak concentration), dogs, mean dose 0.2 mg/kg, model fit; geometric mean, n = 5
parameter_measured: Cmax

1. COc1ccc(-n2nc(C(N)=O)c3c2C(=O)N(c2ccc(N4CCCCC4=O)cc2)CC3)cc1 = 196 ng/mL

====

- experiment_description: Pharmacokinetics after oral apixaban capsules, plasma concentrations by LC/MS
- measurement_parameters: both, mixed-breed, dog, plasma, po, 0.2 mg/kg, V/F (volume of distribution per fraction absorbed), dogs, mean dose 0.2 mg/kg; geometric mean, n = 5
parameter_measured: Vd/F

1. COc1ccc(-n2nc(C(N)=O)c3c2C(=O)N(c2ccc(N4CCCCC4=O)cc2)CC3)cc1 = 0.492 L/kg
